Taken from the supplement of paper PMC10201428.

# Tested on: VchCAST RNA-guided transposition machinery (E. coli BL21(DE3) host, lacZ target)
# experimental_details: relative integration efficiency (T-RL orientation) vs wild-type transposon end (log2 (normalized fold change)); transposon end mutated: left end; higher = more efficient transposition
Measured relative integration efficiency (log2) values are reported for all entries that follow.

Consider the following illustrative entries.
{"columns": ["query_sequence", "value_reported"],
 "data": [
  ["AATGTTGTTGATGCAACCATAAAGTGATATTTAATAATTATTTATAATCCAACCATATATTGATATCTCAGCAACTTAACCACAAAAACAAAACAACCATAAGTTGATATTTTTGTGAATCGAGTATTTCAGCAAAACTACTGCAGTAAGAA", -5.59],
  ["AATGTTGTTGATGCAACCATAAAGTGATATTTAATAATTATTTATAATCAGCAACTTAACCACAAAACAACCATAAAATGATAATTAACAAAAGTTGGTATTCAACTATAAAATGTGAATCGAGTATTTCAGCAAAACTACTGCAGTAAGAA", -2.67],
  ["AATGTTGTTGATGCAACCATAAAGTGATATTTAATAATTAGGGCGCCGACTACCAGGCCAACACCCCACCAACGCGCGGTCGCGAGACACCCCACCAACGCCTGGTCGCGGGGGTGTCCGATCTGATTTCAGCAAAACTACTGCAGTAAGAA", -7.07],
  ["AATGTTGTTGATGCAACCATAAAGTGATATTTAATAATTATTTATAATCAGCAACTTAACCACAAAACAACCATATATTGATATCTCACAAAACAACCATAAGTTGATAGGGGGTGTCCGATCTGATTTCAGCAAAACTACTGCAGTAAGAA", -0.795],
  ["AATGTTGTTGAAACAACCATAAAGTGATAACAACGAATCAATTAAAATCATAGGCTTAATCGAAAAACAACCATATCTTGATATCGCACAAAACAACCATAAGTTGATATTTTTGTGAATCGAGTATTTCAGCAAAACTACTGCAGTAAGAA", -0.51]
]}

Please look up its relative integration efficiency (log2): AATGTTGTTGATGCAACCATAAAGTGATATTTAATAATTATTTATAATCAGCAACCATATATTGATATCTCACAAAACAACCATAAGTTGATATTTTTGTGAATCGAGTATTTCAGCAAAACTACTGCAGTAAGAAAGTTACTTCGTGGTAT
-8.36

Please look up its relative integration efficiency (log2): AATGTTGTTGATGCAACCATAAAGTGATATTTAATAATTATTTATACAACCATAAAGTGATATTTAACAACCATATATTGATATCTCACAAAACAACCATAAGTTGATATTTTTGTGAATCGAGTATTTCAGCAAAACTACTGCAGTAAGAA
-6.31

Please look up its relative integration efficiency (log2): AATGTTGTTGATGCAACCATAAAGTGATATTTAATAATTATTTATAATCAGCAACTTAACCACAAAACAACCAGCGCGGTCGCGAGACACCCCACCAACGCCTGGTCGCGGGGGTGTCCGATCTGATTTCAGCAAAACTACTGCAGTAAGAA
-7.15

====

# Test system: VchCAST RNA-guided transposition machinery (E. coli BL21(DE3) host, lacZ target)
# experimental_details: relative integration efficiency (T-RL orientation) vs wild-type transposon end (log2 (normalized fold change)); transposon end mutated: right end (5 bp flank + 75 bp right end); higher = more efficient transposition
Measured relative integration efficiency (log2) values are reported for all entries that follow.
# output: bare number, no unit

{"columns": ["query_sequence", "test_target", "relative integration efficiency (log2)"],
 "data": [
  ["ACATTTGTTGATACAACCATAAAATGATAATTAATAATTATTTATAATCACCCATAAATTGATAATTATCACACCCATAAATTGATATTGCCTCTGATCATAGTCAGACCAACATTGCTACGACCCG", "VchCAST RNA-guided transposition machinery (E. coli BL21(DE3) host, lacZ target)", -2.92],
  ["ACATTTGTTGATACAACCATAAAATCATAATTACCCCCATCAATTGATAATTATCCCACCCCATTTAACTATAACGCTCTGATCATAGTCAGACCAACATTGCTACGACCCGTATTCGCACCGACAC", "VchCAST RNA-guided transposition machinery (E. coli BL21(DE3) host, lacZ target)", -5.42],
  ["ACATTTGTTCATACAACCCTAAAATGATAATTACACCCATAAATTGATCATTATCACCCCCAATTTAACTATAACGCTCTGATCATAGTCAGACCAACATTGCTACGACCCGTATTCGCACCGACAC", "VchCAST RNA-guided transposition machinery (E. coli BL21(DE3) host, lacZ target)", -2.63],
  ["ACATTTGTTGATACAACCATAAAATGATCCGGACACCCATAAATTGATAATTATCACACCCATAAATTGATATTGCCTCTGATCATAGTCAGACCAACATTGCTACGACCCGTATTCGCACCGACAC", "VchCAST RNA-guided transposition machinery (E. coli BL21(DE3) host, lacZ target)", -1.23],
  ["ACATTTGTTGATACAACCATAAAGTGATATTTACAACCATAAAGTGATATTTATCACACCCATAAATTGATAATTACTCTGATCATAGTCAGACCAACATTGCTACGACCCGTATTCGCACCGACAC", "VchCAST RNA-guided transposition machinery (E. coli BL21(DE3) host, lacZ target)", 0.0651],
  ["ACATTTGTTGATAAAACCATAAAATGATTATTAGAAACCATAATCTGAAATTATCACACCCATAAATTGATATTGCCTCTGATCATAGTCAGACCAACATTGCTACGACCCGTATTCGCACCGACAC", "VchCAST RNA-guided transposition machinery (E. coli BL21(DE3) host, lacZ target)", -3.26]
]}

Please look up its relative integration efficiency (log2): ACATTTGTTGATACAAAACGCCCCGTCGCCGGCACAAACGCCCGGTCGCCGGCGACACAAACGCCCGGTCGCGGTAAGAGGATCATAGTCAGACCAACATTGCTACGACCCGTATTCGCACCGACAC
-7.52

Please look up its relative integration efficiency (log2): ACATTTGTTGATACAACCATAAAATCATCATTACCCCCATAAATTGATAATTATCACACCCAATTTAACTATAACGCTCTGATCATAGTCAGACCAACATTGCTACGACCCGTATTCGCACCGACAC
-4.04

Please look up its relative integration efficiency (log2): ACATTTGTTGATCCAACCATAAAATGATAATTACACCCATAAATGGATAATTATCACACCCAATTTAACTATAACGCTCTGATCATAGTCAGACCAACATTGCTACGACCCGTATTCGCACCGACAC
-1.51

Please look up its relative integration efficiency (log2): ACATTTGTTGATACAACGTTAAAATGATAATTACACCCATAAATTGATAATTATCACACCCATAAATTGATATTGCCTCTGATCATAGTCAGACCAACATTGCTACGACCCGTATTCGCACCGACAC
-0.928

Please look up its relative integration efficiency (log2): ACATTTGTTGATACAACCATAAAAGGATCATTCACCCCTAAATTGATAATTATCACACCCACATTTAACTATAACGCTCTGATCATAGTCAGACCAACATTGCTACGACCCGTATTCGCACCGACAC
-4.73

Please look up its relative integration efficiency (log2): ACATTTGTTGATACAACCATAAAATGATAATTACACCGTATAATTGATAATTATCACACCCATAAATTGATATTGCCTCTGATCATAGTCAGACCAACATTGCTACGACCCGTATTCGCACCGACAC
-1.74

Please look up its relative integration efficiency (log2): ACATTTGTTGATACAACCATAAAATGATAATTACACCCATAAATTGATAATTATCACACCCATAAATTGATATTGCCTCTTTATGCAGGACGACGTACGCGTTCCATATAAACCTGTGCACCGACAC
0.021

Please look up its relative integration efficiency (log2): ACATTTGTTGATACAACCATAAAATGATAATATGTCCCATAAATTGATAATTATCACACCCATAAATTGATATTGCCTCTGATCATAGTCAGACCAACATTGCTACGACCCGTATTCGCACCGACAC
-1.29

Please look up its relative integration efficiency (log2): ACATTTGTTGATACAACCATTAAATGATAATTCCACCCTTAAATTGATAATTATCACACCCAATTTAACTATAACGCTCTGATCATAGTCAGACCAACATTGCTACGACCCGTATTCGCACCGACAC
-2.08
